Entries and their pIC50
Biological target: D2 dopamine Receptors (Rattus norvegicus, UniProt P61169)
Construct: Corpus Striatum from male Wistar rats (150-200 g) is homogenized
Sequence (P61169 whole entry): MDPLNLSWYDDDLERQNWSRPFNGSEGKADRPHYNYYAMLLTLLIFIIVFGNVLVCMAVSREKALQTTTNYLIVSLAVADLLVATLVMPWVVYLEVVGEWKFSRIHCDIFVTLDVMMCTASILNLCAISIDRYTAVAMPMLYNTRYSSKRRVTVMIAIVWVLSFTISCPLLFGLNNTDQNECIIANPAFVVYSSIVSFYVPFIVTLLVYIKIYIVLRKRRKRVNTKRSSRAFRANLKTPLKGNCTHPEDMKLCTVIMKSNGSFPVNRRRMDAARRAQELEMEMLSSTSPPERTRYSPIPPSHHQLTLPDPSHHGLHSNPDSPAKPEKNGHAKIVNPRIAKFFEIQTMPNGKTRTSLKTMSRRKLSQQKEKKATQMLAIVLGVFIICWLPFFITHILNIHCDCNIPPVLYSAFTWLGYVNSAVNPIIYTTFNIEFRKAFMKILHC
Test: In vitro inhibition of 3H-spiperone binding to D2 dopamine receptors
Settings: IC50 for inhibition of specific 3H-spiperone (0.2 nM) binding; corpus striatum of male Wistar rats
Protocol: I) In vitro Inhibition of ^3H-spiperone Binding to D2 dopamine Receptors Tissue preparation: Preparations are performed at 0-4° C. unless otherwise indicated. […] Assay: Aliquots of 0.5 ml tissue are added to 25 μl of test solution and 25 μl of ^3H-spiperone (0.2 nM, final concentration), mixed and incubated for 20 min at 37° C. Non-specific binding is determined using butadamol (1 μM, final concentration). […]
pIC50: −log10 of the molar value.

compound: COc1cc(Cl)ccc1OCC1CN(Cc2ccc(Cl)cc2)CCCO1 (racemic)
pIC50: < 5.00
--
compound: COc1cc(Cl)ccc1OCC1CN(Cc2ccc(Cl)cc2)CCO1 (racemic)
pIC50: < 5.00

Data origin, for the record: patent US6479491B1
